- measurement-target: UniProtKB Q9UGN5
- Sequence (Q9UGN5 whole entry): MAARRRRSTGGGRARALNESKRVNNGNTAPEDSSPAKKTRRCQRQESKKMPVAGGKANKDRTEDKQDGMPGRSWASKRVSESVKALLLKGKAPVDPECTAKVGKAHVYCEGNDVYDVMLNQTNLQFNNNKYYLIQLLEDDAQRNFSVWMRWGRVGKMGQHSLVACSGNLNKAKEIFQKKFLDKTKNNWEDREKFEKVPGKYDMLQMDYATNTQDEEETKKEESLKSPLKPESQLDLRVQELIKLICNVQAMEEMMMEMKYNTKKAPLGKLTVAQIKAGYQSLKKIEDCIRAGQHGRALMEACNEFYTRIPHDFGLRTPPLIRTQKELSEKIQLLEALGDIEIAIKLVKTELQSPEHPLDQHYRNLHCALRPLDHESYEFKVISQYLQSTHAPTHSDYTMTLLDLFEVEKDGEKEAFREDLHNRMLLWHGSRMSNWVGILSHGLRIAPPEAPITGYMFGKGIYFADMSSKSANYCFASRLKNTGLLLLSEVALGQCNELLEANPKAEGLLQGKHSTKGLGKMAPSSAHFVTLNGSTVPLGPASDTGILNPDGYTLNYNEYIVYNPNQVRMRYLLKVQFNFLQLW
- test-protocol: Inhibition of human PARP2 using NAD+ as substrate at 5 nM incubated for 1 hr by ELISA relative to control

{"columns": ["structure-as-smiles", "inhibition"],
 "data": [
  ["O=C1NCCc2c(-c3ccc(CN4CCC(F)(F)CC4)cc3)[nH]c3cc(F)cc1c23", "18%"],
  ["N#Cc1ccc(-c2[nH]c3cc(F)cc4c3c2CCNC4=O)cc1", "53.4%"],
  ["O=C1NCCc2c(-c3ccc(B(O)O)cc3)[nH]c3cc(F)cc1c23", "42.7%"],
  ["O=C1NCCc2c(-c3ccc([N+](=O)[O-])cc3)[nH]c3cc(F)cc1c23", "55.5%"],
  ["C[C@@H]1CN(Cc2cccc(-c3[nH]c4cc(F)cc5c4c3CCNC5=O)c2)CCN1", "50.2%"],
  ["NC1CCN(Cc2cccc(-c3[nH]c4cc(F)cc5c4c3CCNC5=O)c2)CC1", "15.3%"],
  ["C[C@@H]1CN(Cc2ccc(-c3[nH]c4cc(F)cc5c4c3CCNC5=O)cc2)CCN1", "58.8%"],
  ["Nc1ccc(-c2[nH]c3cc(F)cc4c3c2CCNC4=O)cc1", "46%"],
  ["CC(C)N1CCN(Cc2ccc(-c3[nH]c4cc(F)cc5c4c3CCNC5=O)cc2)CC1", "36.5%"],
  ["O=C1NCCc2c(-c3cccc(CN4CCC(F)(F)CC4)c3)[nH]c3cc(F)cc1c23", "24.3%"]
]}
